# SYSTEM_UNDER_TEST: Proteasome subunit beta type-5 (Homo sapiens, UniProt P28074)
# Sequence (P28074 whole entry): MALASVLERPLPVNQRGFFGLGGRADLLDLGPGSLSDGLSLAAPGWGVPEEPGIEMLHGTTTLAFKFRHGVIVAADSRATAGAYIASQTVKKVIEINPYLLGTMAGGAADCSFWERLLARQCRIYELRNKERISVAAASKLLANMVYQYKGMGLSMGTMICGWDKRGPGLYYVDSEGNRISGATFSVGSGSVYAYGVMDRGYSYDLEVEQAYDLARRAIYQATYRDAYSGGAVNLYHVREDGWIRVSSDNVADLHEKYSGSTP
# ASSAY_REMARKS: Inhibition of beta5 proteasome (unknown origin)
ENDPOINT_NAME: IC50 (nM)
// note: answer is a bare numeric in nM

Exercise: Please look up its IC50: CC(C)[C@H](O)C12NC(=O)[C@H](C)[C@@H]1OC2=O (stereo partly drawn)
Solution: 47

Exercise: Next entry: CC(C)C[C@H](NC(=O)[C@@H](NC(=O)c1cccc(-c2ccccc2)n1)[C@@H](C)O)B(O)O
Solution: 1.5

Exercise: Next entry: O=C1NC2([C@@H](O)[C@@H]3C=CCCC3)C(=O)O[C@H]2[C@H]1CCCl (stereo partly drawn)
Solution: 2.6
